Reference source: the supplement of paper PMC9170038

# System: K4 kissing-loop RNA reporter;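 also: bound reporter read as fluorescence of individual clusters on recovered sequencing chips by microscopy, with normalized cluster intensities fitted with a binding model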
# experiment-summary: apparent KD of K4 kissing-loop reporter; higher = weaker reporter binding
# assay-context: Eterna round: R107; input ligand: arginine 13.2 mM
Reported apparent KD of K4 kissing-loop reporter values follow for various sequences
Param answer (str): number followed by unit.

These solved cases illustrate the format of a correct answer.
monomer-sequence: UGUCAUUGGUCGGCCGCCACUAUAAUAAAAGAGUGAUGUUCUAAAAGACGGACAAAAGUCUGUCAUAGGACCGGGACCGAUGACU [TrypBS 25 #SwitchBubble #StaticStem]
measured-quantity: apparent KD of K4 kissing-loop reporter
experimental-value: 430 nM

monomer-sequence: AGCUCAGAGUGACUCGAUAAGAGUCACAAACGAGGACCGGUACGGCCGCCACUCGAAAUAAUGGGAGUGAUGUUCUCACUGAGCA [#SwitchBubble 3 #StaticStem #K4Late]
measured-quantity: apparent KD of K4 kissing-loop reporter
experimental-value: 719 nM

monomer-sequence: UGUGUUUACCUGACUCAGUGAUGUUGAGAAGGAGCGUGCAAACGCACAGGUAGGUCGCUCAACCUAAAUUCAGGUGAGCACUAAA
measured-quantity: apparent KD of K4 kissing-loop reporter
experimental-value: 380 nM

monomer-sequence: UAUGUACGCGGGUAACGGUACAUCGAGGAAGGAGCGUGCGCAGGCACAGGUAGGUCGCCUCAGCGCACGAGUGAUGUUCGUGGGC [Rere]
measured-quantity: apparent KD of K4 kissing-loop reporter
experimental-value: 243 nM

monomer-sequence: AAAACGCUGUGAAUAACACAGCGAAAUUCGCGAGGACCGGUACGGCCGCCACUCGCUAACUGCGAGUGAUGUUCGAUAAUAAAAU [Mat - Mod of OpenEnded 3 - D3]
measured-quantity: apparent KD of K4 kissing-loop reporter
experimental-value: 90.3 nM

Briefly, apparent KD of K4 kissing-loop reporter measured for AAAUCGUUCAGAAGGAGCGUGGUAUAAUCAUUAAUAUUUAUUACGAGUGAUGUUCGUAAUUCACAGGUAGGUCGCUGAUCGAUAA [JR_SSArginiB_Sub006] : 94.6 nM

Briefly, apparent KD of K4 kissing-loop reporter measured for UCGACAGUGAACGAUACCAGCGUCACGUGGCUGGUGGUCACAUGAGUGAUGUUCAUGUAACGCCCUUGGCAGCGUGCACGUAUCA [KL-XTheo-B8] : 127 nM

Briefly, apparent KD of K4 kissing-loop reporter measured for UGACAUUGCUCAGAUACCAGACAAGAGGAUCACCCUUGUGCCAAAACGUACUAAAUAAAUGUCCCUUGGCAGCUGAGCAAUGUCU [TheoBX 13] : 42.1 nM

Briefly, apparent KD of K4 kissing-loop reporter measured for UGUGUUUACCUGACUCAGUGAUGUUGAGAAGGAGCGUGCGAAGGCACAGGUAGGUCGCUCAACCUAAAUUCAGGUGAGCACUAAA : 168 nM

Briefly, apparent KD of K4 kissing-loop reporter measured for GAGGCCAAACGGAGUGAUGUUUCGUAUGAUACCAGCAGCGAAAGCUGCCCUUGGCAGCAUGCCACGGCCUCGGCAGGAAACUGCC : 322 nM

Briefly, apparent KD of K4 kissing-loop reporter measured for ACACUAUCGUCAUAGACGGUAGUGAAAAGUGAGGAUAUGAGUGAUGUUAGAAGGCACUAAGACUGUAUCGAAUAGAUACAGUCAA [FmnA 4 #K4BetweenAptamer #OpenEnded] : 262 nM

Briefly, apparent KD of K4 kissing-loop reporter measured for AGAUCUAAGCUGAGUUAGUCACCAUAAAGCAAGGAUAUUCCACGAAGAAGAAGGUGCAUCAUCCAUAGUGAUGUUAUGGCACGGG [theeternabot_sameState_KL_FMN_A_7] : 548 nM
